FYI, the data here is from patent US9493419B2.

# Test system: Hep3B
# protocol.text: MTS activity assay, Hep3B
# Type: cell-based, human
# condition.info: Homo sapiens, Hep3B; 50 μg/mL, 48 hours, relative to control; read-out: Relative MTS Activity at 50 μg/mL Concentration, Hep3B
Please provide measured viability at 50 µg/mL for the entries that follow.
// unit must come after the numeric part

Challenge: If you can, please state the reported viability at 50 µg/mL value of CC1CCc2cccc(OCc3cccc([N+](=O)[O-])c3)c2N1 (stereo not drawn) .
Response given: 68.8%

Challenge: If you can, please state the reported viability at 50 µg/mL value of CC1CCc2cccc(OCc3ccc(F)cc3)c2N1 (stereo not drawn) [Compound 16b] .
Response given: 41.2%

Challenge: If you can, please state the reported viability at 50 µg/mL value of CC1CCc2cccc(OCc3ccc(Cl)cc3)c2N1 (stereo not drawn) [Compound 18b] .
Response given: 60.9%

Challenge: If you can, please state the reported viability at 50 µg/mL value of Cc1ccc2cccc(OCc3ccc(OC(F)(F)F)cc3)c2n1 [Compound 15a] .
Response given: 77.7%

Challenge: If you can, please state the reported viability at 50 µg/mL value of COc1ccc(COc2cccc3c2NC(C)CC3)cc1 (stereo not drawn) [Compound 11b] .
Response given: 55.4%

Challenge: If you can, please state the reported viability at 50 µg/mL value of CC1CCc2cccc(OCc3cccc(-c4ccccc4)c3)c2N1 (stereo not drawn) [Compound 14b] .
Response given: 51%

Challenge: If you can, please state the reported viability at 50 µg/mL value of COc1cccc(COc2cccc3ccc(C)nc23)c1 [Compound 12a, 8-(3-methoxybenzyloxy)-2-methylquinoline] .
Response given: 20.9%

Challenge: If you can, please state the reported viability at 50 µg/mL value of CC1CCc2cccc(OCc3ccc(C(F)(F)F)cc3)c2N1 (stereo not drawn) [Compound 17b] .
Response given: 73.4%

Challenge: If you can, please state the reported viability at 50 µg/mL value of COc1cccc(COc2cccc3c2NC(C)CC3)c1 (stereo not drawn) [Compound 12b] .
Response given: 72.6%

Challenge: If you can, please state the reported viability at 50 µg/mL value of Cc1ccc2cccc(OCc3cccc(-c4ccccc4)c3)c2n1 [Compound 14a] .
Response given: 37%

Challenge: If you can, please state the reported viability at 50 µg/mL value of CC1CCc2cccc(OCc3ccc(OC(F)(F)F)cc3)c2N1 (stereo not drawn) [Compound 15b] .
Response given: 76%

Challenge: If you can, please state the reported viability at 50 µg/mL value of COc1ccc(COc2cccc3ccc(C)nc23)cc1 [Compound 11a, 8-(4-methoxybenzyloxy)-2-methylquinoline] .
Response given: 32%

Challenge: If you can, please state the reported viability at 50 µg/mL value of CC1CCc2cccc(OCc3ccc(C#N)cc3)c2N1 (stereo not drawn) [Compound 13b] .
Response given: 84.2%

Challenge: If you can, please state the reported viability at 50 µg/mL value of CC1CCc2cccc(OCc3ccc([N+](=O)[O-])cc3)c2N1 (stereo not drawn) [Compound 10b] .
Response given: 126%

Challenge: If you can, please state the reported viability at 50 µg/mL value of Cc1ccc2cccc(OCc3ccc(C(F)(F)F)cc3)c2n1 [Compound 17a] .
Response given: 87.8%
